I'd appreciate it if you could supply inhibition values for the items below.
Molecular target: Serotonin N-acetyltransferase (Ovis aries) (UniProt Q29495)
Sequence (Q29495 whole entry): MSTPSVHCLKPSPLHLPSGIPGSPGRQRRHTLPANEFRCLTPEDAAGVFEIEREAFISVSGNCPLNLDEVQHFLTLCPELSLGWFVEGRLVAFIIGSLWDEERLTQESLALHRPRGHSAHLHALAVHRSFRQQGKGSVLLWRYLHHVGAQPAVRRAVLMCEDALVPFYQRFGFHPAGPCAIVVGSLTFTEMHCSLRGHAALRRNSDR
Assay: Inhibition of ovine AANAT in presence of Triton X-100 at 25 uM by spectrophotometric assay
Numbers only, in %.

| Smiles Code | inhibition [%] |
| --- | --- |
| O=C(O)CCCN1C(=O)/C(=C2/C(=O)Nc3ccc(Br)cc32)SC1=S | 41 |
| CCc1ccc(/C=N/c2c(C)n(C)n(-c3ccccc3)c2=O)cc1 | 61 |

Items follow; give inhibition for each.
1. COc1ccc(NC(=O)CN2C(=O)/C(=C3\SCN(CCS(=O)(=O)O)C3=O)c3ccccc32)cc1
2. O=C(O)CCCCCN1C(=O)/C(=C2/C(=O)N(CC(=O)O)c3ccc(Br)cc32)SC1=S

1. 41
2. 55

Report inhibition for "CC(C)Oc1ccc(C(=O)CC(=O)Nc2ccc(S(=O)(=O)F)cc2)cc1" please.
59

====

Target: Serotonin N-acetyltransferase (Ovis aries) (UniProt Q29495)
Conditions: at 100 µM
Description: Inhibition of ovine AANAT at 100 uM in presence of Triton X-100 by spectrophotometric assay
Experimental Readout: inhibition (%)
One number for each entry, in %.

Worked examples, 5 compounds total:
| Compound | inhibition / % |
| --- | --- |
| O=C(O)CCCCCN1C(=O)C(C2C(=O)Nc3ccccc32)SC1=S (configuration not stated) | 78 |
| O=C(O)CCCCCN1C(=O)C(C2C(=O)N(Cc3ccc(F)cc3)c3ccccc32)SC1=S (configuration not stated) | 66 |
| COc1ccc(/N=N/c2ccc(S(=O)(=O)O)cc2)cc1 | 28 |
| COc1ccc(/C=N/c2ccc(CC(=O)O)cc2)cc1 | 64 |
| O=C(CN1C(=O)C(C2SC(=S)N(CCS(=O)(=O)O)C2=O)c2ccccc21)Nc1ccccc1 (configuration not stated) | 70 |

I have 2 compounds here; please give me inhibition for each one.
1. Cc1ccc(CN2C(=O)C(C3SC(=S)N(CCS(=O)(=O)O)C3=O)c3ccccc32)cc1 (configuration not stated)
2. CCOc1ccc(C(=O)CC(=O)Nc2ccc(S(=O)(=O)F)cc2)cc1OC

1. 54
2. 79

====

Assay: Inhibition of melatonin biosynthesis in rat pinealocytes
Format: functional, cell-based
Experimental Readout: pIC50
Give bare numbers, as −log10 of the molar value.

Consider the compound shown here: O=C(O)CCCCCN1C(=O)C(C2C(=O)N(Cc3ccc(F)cc3)c3ccccc32)SC1=S (stereo unspecified) What is its recorded pIC50?
4.00

====

Kindly state inhibition for each of the entries shown.
Target: Serotonin N-acetyltransferase (Ovis aries)
Test: Inhibition of ovine AANAT at 25 uM by spectrophotometric assay
Answers are plain numbers, in %.

The following compounds have reported results that may help.
| Smiles Code | Experimental System | inhibition / % |
| --- | --- | --- |
| O=C(O)CCCN1C(=O)/C(=C2/C(=O)Nc3ccc(Br)cc32)SC1=S | Serotonin N-acetyltransferase (Ovis aries) | 52 |
| CCc1ccc(/C=N/c2c(C)n(C)n(-c3ccccc3)c2=O)cc1 | Serotonin N-acetyltransferase (Ovis aries) | 70 |
| CC(C)Oc1ccc(C(=O)CC(=O)Nc2ccc(S(=O)(=O)F)cc2)cc1 | Serotonin N-acetyltransferase (Ovis aries) | 43 |
| COc1ccc(NC(=O)CN2C(=O)/C(=C3\SCN(CCS(=O)(=O)O)C3=O)c3ccccc32)cc1 | Serotonin N-acetyltransferase (Ovis aries) | 52 |

What value of inhibition has been recorded for this entry: "O=C(O)CCCCCN1C(=O)/C(=C2/C(=O)N(CC(=O)O)c3ccc(Br)cc32)SC1=S"
43
